tested on: rat hippocampus; test: LTP / synaptic transmission in rat hippocampus (population spike amplitude, dentate gyrus); type: in vivo; details: 60 min after administration; lateral ventricle; prior administration = 100

- molecule: "NC(=O)CN1C(=O)C(O)C(c2ccccc2)C1C(O)c1ccccc1 (racemic) [(±)III1]"
  measure-unit: "%"
  Relative PS (PSA %): 117.37
- molecule: "CN1C(=O)[C@H](O)[C@@H](c2ccccc2)[C@]1(O)[C@H](O)c1ccccc1 [(−)II2, (−)-(3R,4R,5S,6R)-5-hydroxy-clausenamide]"
  measure-unit: "%"
  Relative PS (PSA %): 88.40
- molecule: "CC(=O)O[C@@H]1C(=O)N(C)[C@@](O)([C@H](O)c2ccccc2)[C@H]1c1ccccc1 [(−)-3-O-AC-II1]"
  measure-unit: "%"
  Relative PS (PSA %): 102.66
- molecule: "O=C(O)CN1C(=O)C(O)C(c2ccccc2)C1C(O)c1ccccc1 (racemic) [(±)III2]"
  measure-unit: "%"
  Relative PS (PSA %): 153.36
- molecule: "CC(=O)OCN1C(=O)C(O)C(c2ccccc2)C1C(O)c1ccccc1 (single isomer, unassigned; (-)) [(−)III3, N-acetoxymethylene-norclausenamide]"
  measure-unit: "%"
  Relative PS (PSA %): 141.37
- molecule: "O=C1C(O)C(c2ccccc2)C(C(O)c2ccccc2)N1Cc1ccccc1 (racemic) [(±)III8]"
  measure-unit: "%"
  Relative PS (PSA %): 98.97
- molecule: "Cc1cccc(C)c1NC(=O)CN1C(=O)C(O)C(c2ccccc2)C1C(O)c1ccccc1 (racemic) [(±)III5]"
  measure-unit: "%"
  Relative PS (PSA %): 137.15
- molecule: "CN1C(=O)[C@@H](O)[C@H](c2ccccc2)[C@@]1(O)[C@@H](O)c1ccccc1 [(+)II2, (+)-(3S,4S,5R,6S)-5-hydroxy-clausenamide]"
  measure-unit: "%"
  Relative PS (PSA %): 99.92
- molecule: "CN1C(=O)[C@H](O)[C@@H](c2ccccc2)[C@@]1(O)[C@H](O)c1ccccc1 [(+)II3, (+)-(3R,4R,5R,6R)-5-hydroxy-clausenamide]"
  measure-unit: "%"
  Relative PS (PSA %): 188.03
- molecule: "CN1C(=O)C(O)C(c2ccccc2)C1=Cc1ccccc1 (single isomer, unassigned) [(−)Δ^5,6-I, (−)-Δ^5,6-clausenamide]"
  measure-unit: "%"
  Relative PS (PSA %): 181.50

====

System: rat hippocampus
Experiment: LTP / synaptic transmission in rat hippocampus (population spike amplitude, dentate gyrus)
Type: in vivo
Conditions: 15 min after administration; lateral ventricle; prior administration = 100
Method: Male adult SD Rats (5 per group) were anesthetized with 20% (w/v) urethane carbamate (1.0 g·kg^−1, ip) and fixed in a stereotaxic head holder. […] Population spike amplitude (PSA) was recorded and the relatively percent of PSA was calculated according to the formula (PSA/basic value).
# Relative PS (PSA %) listing for each entry below

- molecule: "CN1C(=O)C(O)C(c2ccccc2)C1=Cc1ccccc1 (single isomer, unassigned) [(−)Δ^5,6-I, (−)-Δ^5,6-clausenamide]"
  system: "rat hippocampus"
  measure-unit: "%"
  Relative PS (PSA %): 123.37
- molecule: "CN1C(=O)[C@@H](O)[C@H](c2ccccc2)[C@@]1(O)[C@@H](O)c1ccccc1 [(+)II2, (+)-(3S,4S,5R,6S)-5-hydroxy-clausenamide]"
  system: "rat hippocampus"
  measure-unit: "%"
  Relative PS (PSA %): 81.48
- molecule: "O=C1C(O)C(c2ccccc2)C(C(O)c2ccccc2)N1Cc1ccccc1 (racemic) [(±)III8]"
  system: "rat hippocampus"
  measure-unit: "%"
  Relative PS (PSA %): 67.75
- molecule: "CN1C(=O)[C@H](O)[C@@H](c2ccccc2)[C@]1(O)[C@H](O)c1ccccc1 [(−)II2, (−)-(3R,4R,5S,6R)-5-hydroxy-clausenamide]"
  system: "rat hippocampus"
  measure-unit: "%"
  Relative PS (PSA %): 110.55
- molecule: "CN1C(=O)[C@H](O)[C@@H](c2ccccc2)[C@@]1(O)[C@H](O)c1ccccc1 [(+)II3, (+)-(3R,4R,5R,6R)-5-hydroxy-clausenamide]"
  system: "rat hippocampus"
  measure-unit: "%"
  Relative PS (PSA %): 91.74
- molecule: "Cc1cccc(C)c1NC(=O)CN1C(=O)C(O)C(c2ccccc2)C1C(O)c1ccccc1 (racemic) [(±)III5]"
  system: "rat hippocampus"
  measure-unit: "%"
  Relative PS (PSA %): 87.51
- molecule: "CC(=O)OCN1C(=O)C(O)C(c2ccccc2)C1C(O)c1ccccc1 (single isomer, unassigned; (-)) [(−)III3, N-acetoxymethylene-norclausenamide]"
  system: "rat hippocampus"
  measure-unit: "%"
  Relative PS (PSA %): 90.33
- molecule: "NC(=O)CN1C(=O)C(O)C(c2ccccc2)C1C(O)c1ccccc1 (racemic) [(±)III1]"
  system: "rat hippocampus"
  measure-unit: "%"
  Relative PS (PSA %): 85.24
- molecule: "CN1C(=O)[C@@H](O)[C@H](c2ccccc2)[C@]1(O)[C@@H](O)c1ccccc1 [(−)II3, (−)-(3S,4S,5S,6S)-5-hydroxy-clausenamide]"
  system: "rat hippocampus"
  measure-unit: "%"
  Relative PS (PSA %): 92.83
- molecule: "O=C(O)CN1C(=O)C(O)C(c2ccccc2)C1C(O)c1ccccc1 (racemic) [(±)III2]"
  system: "rat hippocampus"
  measure-unit: "%"
  Relative PS (PSA %): 99.41
- molecule: "COc1ccc(CN2C(=O)C(O)C(c3ccccc3)C2C(O)c2ccccc2)cc1 (racemic) [(±)III9]"
  system: "rat hippocampus"
  measure-unit: "%"
  Relative PS (PSA %): 115.6
- molecule: "CC(=O)O[C@@H]1C(=O)N(C)[C@@](O)([C@H](O)c2ccccc2)[C@H]1c1ccccc1 [(−)-3-O-AC-II1]"
  system: "rat hippocampus"
  measure-unit: "%"
  Relative PS (PSA %): 78.91
- molecule: "CN1C(=O)[C@@H](O)[C@H](c2ccccc2)[C@]1(O)[C@H](O)c1ccccc1 [(+)II1, (+)-(3S,4S,5S,6R)-5-hydroxy-clausenamide]"
  system: "rat hippocampus"
  measure-unit: "%"
  Relative PS (PSA %): 144.86

====

test system: rat hippocampus; assay: LTP / synaptic transmission in rat hippocampus (population spike amplitude, dentate gyrus); format: in vivo; conditions: 60 min after administration; lateral ventricle; prior administration = 100
readout-kind: Relative PS (PSA %)

- compound: "COc1ccc(CN2C(=O)C(O)C(c3ccccc3)C2C(O)c2ccccc2)cc1 (racemic) [(±)III9]"
  reported-value: 112.72
- compound: "CN1C(=O)[C@@H](O)[C@H](c2ccccc2)[C@]1(O)[C@@H](O)c1ccccc1 [(−)II3, (−)-(3S,4S,5S,6S)-5-hydroxy-clausenamide]"
  reported-value: 98.30
- compound: "CN1C(=O)[C@@H](O)[C@H](c2ccccc2)[C@]1(O)[C@H](O)c1ccccc1 [(+)II1, (+)-(3S,4S,5S,6R)-5-hydroxy-clausenamide]"
  reported-value: 233.24
